Sourced from paper PMC11347734

target: MUC16 antigen (CA125) (UniProt Q8WXI7 1-14451)
testName: SPR; 315 K (42 C), pH 7.2; SPR, pH 7.2, 25 C (also 37 and 42 C); 1X PBS with 1 mM MgCl2 given as flow buffer for aptamer immobilization; surface blocked with 0.1% BSA
measurementConditions: protein: commercial
experimentalEndpoint: pKd
# pKd: negative log10 of molar concentration; output just the value

Req: Please report pKd for the following binder: CTCACTATAGGGAGACAAGAATAAACGCTCAA (ssDNA, 3'-C6 amine) [anti-MUC16 aptamer]
Resp: 5.87
